Test system: SW 1271 complex spheroids, viability
Test: Anticancer human tumor SW 1271 cell line growth inhibition [LSD1]
Conditions: second compound 1 µM; first compound 0.01 µM; hits give low values
// returns F unless viability, T/C is strictly below 60%, in which case T

Study these solved cases before continuing.
molecule	assaySystem	assignedLabel
Nc1ncn(C2CC(O)C(CO)O2)c(=O)n1 (configuration not stated) + NC1CC1c1ccc(-c2cccc(O)c2)cc1	SW 1271 complex spheroids, viability	F
O=C(C=Cn1cnc(-c2cc(C(F)(F)F)cc(C(F)(F)F)c2)n1)NNc1cnccn1 + NC1CC1c1ccc(-c2cccc(O)c2)cc1	SW 1271 complex spheroids, viability	F

Ask | Dear reviewer, please state whether Cn1ncnc1C1c2n[nH]c(=O)c3cc(F)cc(c23)NC1c1ccc(F)cc1 (configuration not stated) + NC1CCC(NC2CC2c2ccccc2)CC1 has viability, T/C strictly beneath 60%.
Reply | F

Ask | Dear reviewer, please state whether CC1COCCN1c1cc(-c2ccnn2C)c2ccnc(-c3ccn[nH]3)c2n1 (configuration not stated) + NC1CC1c1ccc(-c2cccc(O)c2)cc1 has viability, T/C strictly beneath 60%.
Reply | T

Ask | Dear reviewer, please state whether COc1cc(Nc2ncc3c(n2)-c2ccc(Cl)cc2C(c2c(F)cccc2OC)=NC3)ccc1C(=O)O + NC1CCC(NC2CC2c2ccccc2)CC1 has viability, T/C strictly beneath 60%.
Reply | F

Ask | Dear reviewer, please state whether Cn1ncnc1C1c2n[nH]c(=O)c3cc(F)cc(c23)NC1c1ccc(F)cc1 (configuration not stated) + NC1CC1c1ccc(-c2cccc(O)c2)cc1 has viability, T/C strictly beneath 60%.
Reply | F

Ask | Dear reviewer, please state whether CC[C@@]1(O)C(=O)OCc2c1cc1n(c2=O)Cc2cc3c(CN(C)C)c(O)ccc3nc2-1 + NC1CC1c1ccc(-c2cccc(O)c2)cc1 has viability, T/C strictly beneath 60%.
Reply | T

###

Provide the recorded viability, T/C for the entries that follow.
System: SW 1271 complex spheroids, viability
Assay: Anticancer human tumor SW 1271 cell line growth inhibition [LSD1]
Conditions: second compound 1 µM; first compound 0.01 µM; hits give low values
Answers are plain numbers, in %.

Here's what some known entries look like.
molecule	viability, T/C, %
CC(C)CC(NC(=O)CNC(=O)c1cc(Cl)ccc1Cl)B1OC(=O)CC(CC(=O)O)(C(=O)O)O1 (centres undefined) + NC1CCC(NC2CC2c2ccccc2)CC1	6.04
CC1COCCN1c1cc(-c2ccnn2C)c2ccnc(-c3ccn[nH]3)c2n1 (centres undefined) + NC1CCC(NC2CC2c2ccccc2)CC1	62
CC(C)CC(NC(=O)C(Cc1ccccc1)NC(=O)c1cnccn1)B(O)O (centres undefined) + NC1CC1c1ccc(-c2cccc(O)c2)cc1	4.1

Ask | Report viability, T/C from SW 1271 complex spheroids, viability testing of COc1cc(Nc2ncc3c(n2)-c2ccc(Cl)cc2C(c2c(F)cccc2OC)=NC3)ccc1C(=O)O + NC1CC1c1ccc(-c2cccc(O)c2)cc1
Reply | 67.3

###

Provide the recorded viability, T/C for the entries that follow.
Tested on: SW 1271 complex spheroids, viability
Test: Anticancer human tumor SW 1271 cell line growth inhibition [LSD1];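 also: spheroids exposed to agents for 7 days before luminescence read; 100% = DMSO vehicle control viability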
Settings: second compound 10 µM; first compound 0.3 µM; hits give low values
Numbers only, in %.

Here's what some known entries look like.
molecule	viability, T/C / %
Nc1ccccc1NC(=O)c1ccc(CNC(=O)OCc2cccnc2)cc1 + NC1CC1c1ccc(-c2cccc(O)c2)cc1	29.4
NS(=O)(=O)OCC1CC(n2ccc3c(NC4CCc5ccccc54)ncnc32)CC1O (stereo not drawn) + NC1CC1c1ccc(-c2cccc(O)c2)cc1	101
Nc1ncn(C2CC(O)C(CO)S2)c(=O)n1 (stereo not drawn) + NC1CC1c1ccc(-c2cccc(O)c2)cc1	58.9
NS(=O)(=O)OCC1CC(n2ccc3c(NC4CCc5ccccc54)ncnc32)CC1O (stereo not drawn) + NC1CCC(NC2CC2c2ccccc2)CC1	73.9
O=C(C=Cc1cccc(S(=O)(=O)Nc2ccccc2)c1)NO + NC1CCC(NC2CC2c2ccccc2)CC1	22.1
CCN(c1cc(-c2ccc(CN3CCOCC3)cc2)cc(C(=O)NCc2c(C)cc(C)[nH]c2=O)c1C)C1CCOCC1 + NC1CC1c1ccc(-c2cccc(O)c2)cc1	51.8

// for each molecule below, give its viability, T/C
1. Nc1ccn(C2OC(CO)C(O)C2(F)F)c(=O)n1 (stereo not drawn) + NC1CC1c1ccc(-c2cccc(O)c2)cc1
2. CCc1c2c(nc3ccc(O)cc13)-c1cc3c(c(=O)n1C2)COC(=O)[C@]3(O)CC + NC1CCC(NC2CC2c2ccccc2)CC1

Reply |
[51.2, 3.36]

###

Test system: SW 1271 complex spheroids, viability
Assay: Anticancer human tumor SW 1271 cell line growth inhibition [LSD1];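 also: spheroids exposed to agents for 7 days before luminescence read; 100% = DMSO vehicle control viability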
Details: second compound 0.1 µM; first compound 0.3 µM; hits give low values
// returns NOT MET unless viability, T/C is strictly below 50%, in which case MET

Study these solved cases before continuing.
molecule	assignedLabel
Nc1ccn(C2OC(CO)C(O)C2(F)F)c(=O)n1 (stereo not given) + NC1CCC(NC2CC2c2ccccc2)CC1	NOT MET
COc1cc(C2c3cc4c(cc3C(OC3OC5COC(C)OC5C(O)C3O)C3COC(=O)C23)OCO4)cc(OC)c1O (stereo not given) + NC1CC1c1ccc(-c2cccc(O)c2)cc1	NOT MET
O=C(C=Cc1cccc(S(=O)(=O)Nc2ccccc2)c1)NO + NC1CCC(NC2CC2c2ccccc2)CC1	MET
Nc1ncn(C2CC(O)C(CO)S2)c(=O)n1 (stereo not given) + NC1CC1c1ccc(-c2cccc(O)c2)cc1	NOT MET

Consider the additional molecule presented here.
Ask | Dear reviewer, please state whether Nc1ccccc1NC(=O)c1ccc(CNC(=O)OCc2cccnc2)cc1 + NC1CCC(NC2CC2c2ccccc2)CC1 has viability, T/C strictly beneath 50%.
Reply | MET

###

Tested on: SW 1271 complex spheroids, viability
Test: Anticancer human tumor SW 1271 cell line growth inhibition [LSD1];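 also: spheroids exposed to agents for 7 days before luminescence read; 100% = DMSO vehicle control viability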
Settings: second compound 10 µM; first compound 0.03 µM; hits give low values
Text: Multicellular complex tumor spheroid response to LSD1 Inhibitor Iadademstat in combination with a variety of drugs and investigational agents in selected tumor cell lines The current study was undertaken to assess response to LSD1 inhibitors in combination with standard-of-care drugs and investigational agents in solid tumor complex spheroid models as well as in the K-562 leukemia. […] Compounds. […] If the clinical Cmax for an agent had not been determined, the highest concentration tested was 10 microM. […]
// returns N unless viability, T/C is strictly below 60%, in which case Y

molecule	assignedLabel
CCN(c1cc(-c2ccc(CN3CCOCC3)cc2)cc(C(=O)NCc2c(C)cc(C)[nH]c2=O)c1C)C1CCOCC1 + NC1CC1c1ccc(-c2cccc(O)c2)cc1	N

Ask | Dear reviewer, please state whether CCc1c2c(nc3ccc(O)cc13)-c1cc3c(c(=O)n1C2)COC(=O)[C@]3(O)CC + NC1CC1c1ccc(-c2cccc(O)c2)cc1 has viability, T/C strictly beneath 60%.
Reply | Y

Ask | Dear reviewer, please state whether CCc1c2c(nc3ccc(O)cc13)-c1cc3c(c(=O)n1C2)COC(=O)[C@]3(O)CC + NC1CCC(NC2CC2c2ccccc2)CC1 has viability, T/C strictly beneath 60%.
Reply | Y

###

Test system: SW 1271 complex spheroids, viability
Test: Anticancer human tumor SW 1271 cell line growth inhibition [LSD1];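 also: spheroids exposed to agents for 7 days before luminescence read; 100% = DMSO vehicle control viability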
Details: second compound 0.316 µM; first compound 0.03 µM; hits give low values
readoutType: viability, T/C (%)
Numbers only, in %.

Here's what some known entries look like.
compound	assaySystem	unit	viability, T/C
Nc1ccn(C2OC(CO)C(O)C2(F)F)c(=O)n1 (configuration not stated) + NC1CCC(NC2CC2c2ccccc2)CC1	SW 1271 complex spheroids, viability	%	61.3
NS(=O)(=O)OCC1CC(n2ccc3c(NC4CCc5ccccc54)ncnc32)CC1O (configuration not stated) + NC1CCC(NC2CC2c2ccccc2)CC1	SW 1271 complex spheroids, viability	%	131
O=C(C=Cc1cccc(S(=O)(=O)Nc2ccccc2)c1)NO + NC1CCC(NC2CC2c2ccccc2)CC1	SW 1271 complex spheroids, viability	%	69.8

// for each compound below, give its viability, T/C
1. COc1cc(C2c3cc4c(cc3C(OC3OC5COC(C)OC5C(O)C3O)C3COC(=O)C23)OCO4)cc(OC)c1O (configuration not stated) + NC1CC1c1ccc(-c2cccc(O)c2)cc1
2. Nc1ncn(C2CC(O)C(CO)S2)c(=O)n1 (configuration not stated) + NC1CCC(NC2CC2c2ccccc2)CC1
3. CCN(c1cc(-c2ccc(CN3CCOCC3)cc2)cc(C(=O)NCc2c(C)cc(C)[nH]c2=O)c1C)C1CCOCC1 + NC1CC1c1ccc(-c2cccc(O)c2)cc1
4. CCc1c2c(nc3ccc(O)cc13)-c1cc3c(c(=O)n1C2)COC(=O)[C@]3(O)CC + NC1CC1c1ccc(-c2cccc(O)c2)cc1

Reply |
58.9
93.6
82.2
10.3
